# EXPERIMENT_NOTES: Acumen qHTS Assay for Inhibitors of the mTORC1 Signaling Pathway in MEF (Tsc2-/-, p53-/-) Cells: Hit Validation;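 also: phospho-rpS6 Ser235/236 immunofluorescence normalized to propidium iodide cell count; cells exposed to compound for 24 hours; plate controls were DMSO for no effect and 7.5 nM rapamycin control for full effect; nearly all actives have a fitted effect of over 65% in size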
# RECORDED_CONDITIONS: Acumen imaging; at 37.3 µM (top of the series)
Results filed as inconclusive are left out.
MEASUREMENT_LABEL: activity change, negative = inhibition (%)
Numbers only, in %.

Examples from the recorded data:
In [3]: df
Out[3]:
                                   molecule                       measurement_label  readout_value
0  CS(=O)(=O)N(CC(=O)NCCc1ccccc1)c1cc(C(F)(F)F)ccc1Cl  activity change, negative = inhibition           30.3
1  Cc1ccc(O)c(C(CC(=O)NCC2(c3ccccc3)CCCC2)c2ccccc2)c1 (stereo not given)  activity change, negative = inhibition           2.09
2  CCc1ccc(S(=O)(=O)N(C(=O)Oc2ccccc2)c2ccc3oc(C)c(C(=O)OC)c3c2)cc1  activity change, negative = inhibition          -70.3
3  CCc1cnc2c(c1SCC(=O)NCc1ccc(F)cc1)c(=O)n(C)c(=O)n2C  activity change, negative = inhibition           5.42
4             Nc1nnc(SCC(=O)Nc2cccc(F)c2)s1  activity change, negative = inhibition           16.3
5  CCn1c(=O)sc2cc(NS(=O)(=O)c3ccc(F)c(C)c3)ccc21  activity change, negative = inhibition          -28.9
6  COc1ccccc1C(=O)Nc1ccc2nc(N3CCC(C)CC3)cc(C)c2c1  activity change, negative = inhibition          -19.9
7  CCN(CC)S(=O)(=O)c1ccc(NC(=O)CCc2c(C)nc3cc(-c4ccc(Cl)cc4)nn3c2C)cc1  activity change, negative = inhibition           -101
8  COc1ccc(-c2ccc(CCC(=O)O)n2-c2ccccc2O)cc1  activity change, negative = inhibition          -2.33

Prompt: For the molecule shown here, C#CCN1C(=O)C(O)(CC(=O)c2ccc(OC)c(OC)c2)c2cc(Br)ccc21 (stereo not given) , give the reported activity change, negative = inhibition.
Completion: -24.1
